Would you mind telling me the reported inhibition at 0.2 µM of each entry?
target: canine TRPM8 (Canis lupus familiaris, UniProt Q1A7N1); test: In Vitro Canine TRPM8 Functional Assay (Ca2+ fluorescence, icilin activation); assay type: cell-based; settings: compound at 0.2 μM; canine TRPM8, icilin activation; read-out: % Inh @ 0.2
Sequence (Q1A7N1 1-1104): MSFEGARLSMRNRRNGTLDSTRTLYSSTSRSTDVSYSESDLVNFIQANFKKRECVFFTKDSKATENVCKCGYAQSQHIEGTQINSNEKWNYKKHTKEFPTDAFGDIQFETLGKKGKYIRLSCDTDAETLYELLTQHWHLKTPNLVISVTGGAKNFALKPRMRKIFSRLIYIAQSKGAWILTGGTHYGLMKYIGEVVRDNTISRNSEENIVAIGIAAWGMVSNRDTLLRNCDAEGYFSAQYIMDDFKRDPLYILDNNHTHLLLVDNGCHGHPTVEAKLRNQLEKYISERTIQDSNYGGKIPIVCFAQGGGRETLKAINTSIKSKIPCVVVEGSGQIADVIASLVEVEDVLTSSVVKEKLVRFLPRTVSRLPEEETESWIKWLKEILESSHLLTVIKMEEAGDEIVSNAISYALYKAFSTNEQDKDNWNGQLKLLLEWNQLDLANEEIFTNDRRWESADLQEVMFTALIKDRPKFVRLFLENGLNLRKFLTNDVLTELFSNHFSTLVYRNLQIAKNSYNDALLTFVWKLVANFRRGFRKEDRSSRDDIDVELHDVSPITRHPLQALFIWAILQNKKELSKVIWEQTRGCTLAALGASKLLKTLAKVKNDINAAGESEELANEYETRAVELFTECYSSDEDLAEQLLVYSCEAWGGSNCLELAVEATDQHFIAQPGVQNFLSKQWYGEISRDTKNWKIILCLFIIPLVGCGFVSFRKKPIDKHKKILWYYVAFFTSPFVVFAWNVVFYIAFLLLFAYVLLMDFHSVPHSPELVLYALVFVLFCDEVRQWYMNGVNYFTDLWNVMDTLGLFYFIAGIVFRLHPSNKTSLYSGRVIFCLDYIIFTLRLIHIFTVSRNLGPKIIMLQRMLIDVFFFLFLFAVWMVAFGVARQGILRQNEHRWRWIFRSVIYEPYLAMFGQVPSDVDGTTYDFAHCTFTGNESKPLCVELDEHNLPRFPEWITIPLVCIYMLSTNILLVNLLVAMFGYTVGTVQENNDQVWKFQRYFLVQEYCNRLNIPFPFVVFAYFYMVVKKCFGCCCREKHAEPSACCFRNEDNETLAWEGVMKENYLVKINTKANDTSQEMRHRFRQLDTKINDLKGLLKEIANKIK
Give the number; % is assumed, so skip it.

Query string: Quick check: inhibition at 0.2 µM of Cc1c(N(Cc2ccc(F)c(C(F)(F)F)c2)S(=O)(=O)c2cccc3nccnc23)sc2ccccc12 ?
Result string: 102

Query string: And the next one, O=C(O)c1ccc(S(=O)(=O)N(CCCCC(F)(F)F)c2sc3ccccc3c2Cl)cc1 ?
Result string: 105

Query string: And the next one, Cc1c(N(Cc2ccc(F)c(C(F)(F)F)c2)S(=O)(=O)CCC(=O)O)sc2ccccc12 ?
Result string: 102

Query string: And the next one, O=S(=O)(c1ccsc1)N(Cc1ccc(F)c(C(F)(F)F)c1)c1cc2ccccc2s1 ?
Result string: 102

Query string: And the next one, O=S(=O)(c1ccccc1)N(CCC(F)(F)F)c1sc2ccccc2c1Br ?
Result string: 102

Query string: And the next one, CCCCN(c1sc2ccccc2c1Cl)S(=O)(=O)c1ccc(N2CCOCC2)cc1 ?
Result string: 103

Query string: And the next one, CS(=O)(=O)Nc1ccc(S(=O)(=O)N(CCC(F)(F)F)c2sc3ccccc3c2Cl)cc1 ?
Result string: 102

Query string: And the next one, O=S(=O)(c1cccnc1)N(Cc1ccc(F)c(C(F)(F)F)c1)c1sc2ccccc2c1Br ?
Result string: 99

Query string: And the next one, O=S(=O)(c1ccc(-c2nnn[nH]2)cc1)N(CCC1CC1)c1sc2ccccc2c1Br ?
Result string: 101

Query string: And the next one, CNC1=C(N(CCC2CC2)S(=O)(=O)c2ccccc2)S(=O)(=O)c2ccccc21 ?
Result string: 63

Query string: And the next one, O=C(O)c1ccc(S(=O)(=O)N(CCC(F)(F)F)c2sc3ccccc3c2Br)cc1 ?
Result string: 98

Query string: And the next one, Cc1c(N(Cc2ccc(F)c(C(F)(F)F)c2)S(=O)(=O)c2cccc(Oc3ccccc3)c2)sc2ccccc12 ?
Result string: 99

Query string: And the next one, Cc1c(N(CCCCC(F)(F)F)S(=O)(=O)c2ccc(C(=O)O)cc2F)sc2ccccc12 ?
Result string: 101

Query string: And the next one, Cc1c(N(Cc2ccc(F)c(C(F)(F)F)c2)S(=O)(=O)c2cccnc2Cl)sc2ccccc12 ?
Result string: 97

Query string: And the next one, Cc1c(N(Cc2ccc(F)c(C(F)(F)F)c2)S(=O)(=O)CCCCO)sc2ccccc12 ?
Result string: 101

Query string: And the next one, COC(=O)CCS(=O)(=O)N(CCCCC(F)(F)F)c1sc2ccccc2c1C ?
Result string: 101

Query string: And the next one, COC(=O)c1ccc(S(=O)(=O)N(Cc2ccc(F)c(C(F)(F)F)c2)c2sc3ccccc3c2C2CCC2)cc1 ?
Result string: 97

Query string: And the next one, Cc1nccc(-c2cccc(S(=O)(=O)N(CCCC(F)(F)F)c3sc4ccccc4c3C)c2)n1 ?
Result string: 87

Query string: And the next one, NC1=C(N(CCC2CC2)S(=O)(=O)c2ccccc2)S(=O)(=O)c2ccccc21 ?
Result string: 55

Query string: And the next one, Cc1c(N(Cc2cc(F)c(F)c(F)c2)S(=O)(=O)c2ccc(C(=O)O)cc2)sc2ccccc12 ?
Result string: 102

Query string: And the next one, O=S(=O)(c1cccs1)N(Cc1ccc(F)c(C(F)(F)F)c1)c1sc2ccccc2c1Cl ?
Result string: 105

Query string: And the next one, COC(=O)c1ccccc1S(=O)(=O)N(Cc1ccc(F)c(C(F)(F)F)c1)c1sc2ccccc2c1Cl ?
Result string: 99

Query string: And the next one, COc1cc(NS(C)(=O)=O)ccc1S(=O)(=O)N(Cc1ccc(F)c(C(F)(F)F)c1)c1sc2ccccc2c1Cl ?
Result string: 99

Query string: And the next one, O=C(O)c1ccc(S(=O)(=O)N(CCCC(F)(F)F)c2cc3ccccc3s2)cc1 ?
Result string: 97

----------
molecular target: canine TRPM8 (Canis lupus familiaris, UniProt Q1A7N1); assay: In Vitro Canine TRPM8 Functional Assay (Ca2+ fluorescence, icilin activation); format: cell-based; settings: HEK293 cells stably expressing canine TRPM8; icilin activation; eight-point dose-response; read-out: IC50
Measured parameter: IC50 (nM)
Give the number; nM is assumed, so skip it.

Query string: Quick check: IC50 of CC(=O)c1c(N(Cc2ccc(OC(F)(F)F)cc2)S(=O)(=O)c2ccc(Br)cc2)sc2ccccc12 ?
Result string: 44.4

Query string: And the next one, CC(C)(O)c1c(N(Cc2ccc(F)c(C(F)(F)F)c2)S(=O)(=O)c2ccc(Br)cc2)sc2ccccc12 ?
Result string: 19

Query string: And the next one, CS(=O)(=O)CCN(c1sc2ccccc2c1Br)S(=O)(=O)c1ccccc1 ?
Result string: 92

Query string: And the next one, Cc1c(N(Cc2ccc(S(=O)(=O)C(F)(F)F)cc2)S(=O)(=O)c2ccc(C(=O)O)cc2)sc2ccccc12 ?
Result string: 0.9

Query string: And the next one, CCCCN(c1sc2ccccc2c1Br)S(=O)(=O)CC ?
Result string: 12.6

----------
target: canine TRPM8 (Canis lupus familiaris); test: In Vitro Canine TRPM8 Functional Assay (Ca2+ fluorescence, icilin activation); assay type: cell-based; conditions: HEK293 cells stably expressing canine TRPM8; icilin activation; eight-point dose-response; read-out: IC50
pIC50: −log10 of the molar value.
Answer no (0) if pIC50 is under 8, and yes (1) if it is 8 or more.

Query string: Answer whether pIC50 of NCCN(c1sc2ccccc2c1Cl)S(=O)(=O)c1ccccc1 is greater than or equal to 8.
Result string: no (0)

Query string: And the next one, O=S1NC(c2ccc(S(=O)(=O)N(CCC3CC3)c3sc4ccccc4c3Cl)cc2)=NO1 (stereo not shown) ?
Result string: no (0)

Query string: And the next one, CC(C)(C)OCCN(c1sc2ccccc2c1Br)S(=O)(=O)c1ccc(C(=O)O)cc1 ?
Result string: yes (1)

Query string: And the next one, CNS(=O)(=O)N(Cc1ccc(F)c(C(F)(F)F)c1)c1sc2ccccc2c1C ?
Result string: no (0)

Query string: And the next one, CCS(=O)(=O)N(Cc1ccc(F)c(C(F)(F)F)c1)c1sc2ccccc2c1CO ?
Result string: yes (1)

----------
molecular target: canine TRPM8 (Canis lupus familiaris, UniProt Q1A7N1); experiment: In Vitro Canine TRPM8 Functional Assay (Ca2+ fluorescence, icilin activation); format: cell-based; details: compound at 0.5 μM; canine TRPM8, icilin activation; read-out: % Inh @ 0.5
Would you mind telling me the reported inhibition at 0.5 µM of each entry?
Give the number; % is assumed, so skip it.

Query string: Quick check: inhibition at 0.5 µM of Cc1c(N(Cc2ccc(OC(F)(F)F)cc2)S(=O)(=O)c2cccc3cnccc23)sc2ccccc12 ?
Result string: 100

Query string: And the next one, O=S(=O)(c1ccccc1)N(Cc1ccc(F)c(F)c1)c1cc2ccccc2s1 ?
Result string: 100

Query string: And the next one, CCS(=O)(=O)N(Cc1ccc(F)c(C(F)(F)F)c1)c1sc2ccccc2c1C(C)O (centres unmarked) ?
Result string: 99

Query string: And the next one, COc1ccc(S(=O)(=O)N(Cc2ccc(F)c(F)c2)c2sc3ccccc3c2C)cc1 ?
Result string: 98

Query string: And the next one, CCCS(=O)(=O)N(Cc1ccc(F)c(F)c1)c1cc2ccccc2s1 ?
Result string: 98

Query string: And the next one, CS(=O)(=O)N(Cc1ccc(F)c(F)c1)c1cc2ccccc2s1 ?
Result string: 98

Query string: And the next one, O=S(=O)(c1ccccc1)N(Cc1cccc2cccnc12)c1sc2ccccc2c1Cl ?
Result string: 97

Query string: And the next one, O=[N+]([O-])c1cccc(CN(c2sc3ccccc3c2Br)S(=O)(=O)c2ccccc2)c1 ?
Result string: 101

Query string: And the next one, O=S(=O)(c1ccccc1)N(CC1CCCCC1)c1cc2ccccc2s1 ?
Result string: 100

Query string: And the next one, COc1cccc2cc(N(Cc3ccc(F)c(F)c3)S(=O)(=O)c3ccccc3)sc12 ?
Result string: 60

Query string: And the next one, Cc1c(N(Cc2ccc(F)c(F)c2)S(=O)(=O)c2cn(C)cn2)sc2ccccc12 ?
Result string: 99

Query string: And the next one, CC(C)(C)OCCN(c1sc2ccccc2c1Cl)S(=O)(=O)c1ccccc1 ?
Result string: 99

Query string: And the next one, COc1ccc(CN(c2sc3ccccc3c2Br)S(=O)(=O)c2ccccc2)cc1Br ?
Result string: 98

Query string: And the next one, CCS(=O)(=O)N(Cc1ccc(F)c(C(F)(F)F)c1)c1sc2ccccc2c1Br ?
Result string: 99

Query string: And the next one, O=S(=O)(c1ccccc1)N(Cc1cccc(O)c1)c1cc2ccccc2s1 ?
Result string: 96

Query string: And the next one, COc1cccc(CN(c2cc3ccccc3s2)S(=O)(=O)c2ccccc2)c1 ?
Result string: 98

Query string: And the next one, CC(=O)c1c(N(Cc2ccc(F)c(F)c2)S(=O)(=O)c2ccccc2)sc2ccccc12 ?
Result string: 96

Query string: And the next one, O=S(=O)(c1ccccc1)N(Cc1ccc(F)c(F)c1)c1sc2ccccc2c1Br ?
Result string: 98

Query string: And the next one, Cc1ccccc1CN(c1sc2ccccc2c1Br)S(=O)(=O)c1ccccc1 ?
Result string: 96

Query string: And the next one, O=S(=O)(c1ccccc1)N(CC1CCCCC1)c1sc2ccccc2c1Br ?
Result string: 94

Query string: And the next one, O=S(=O)(c1ccccc1)N(CCc1ccccc1)c1cc2ccccc2s1 ?
Result string: 95

Query string: And the next one, C=CCN(c1cc2ccccc2s1)S(=O)(=O)c1ccccc1 ?
Result string: 98

Query string: And the next one, CC(C)(C)OC(=O)N1CCCC1CN(c1sc2ccccc2c1Cl)S(=O)(=O)c1ccccc1 (centres unmarked) ?
Result string: 96

Query string: And the next one, COc1cccc(CN(c2sc3ccccc3c2Br)S(=O)(=O)c2ccccc2)c1 ?
Result string: 101

Query string: And the next one, Cn1cnc(S(=O)(=O)N(Cc2ccc(F)c(F)c2)c2sc3ccccc3c2Br)c1 ?
Result string: 100

Query string: And the next one, COc1cccc2c(Cl)c(N(Cc3ccc(F)c(F)c3)S(=O)(=O)c3ccccc3)sc12 ?
Result string: 48

Source: patent US9434711B2
